- Assay system: fatty acyl CoA: cholesterol acyl transferase (ACAT) (Rattus norvegicus)
- Construct: The supernatant, containing the microsomal fraction, served as the source of the cholesterol-esterifying enzyme; from tissue; host or cells: rat adrenals, supernatant of 1,000 x g centrifugation containing the microsomal fraction
- Sequence (O70536 whole entry): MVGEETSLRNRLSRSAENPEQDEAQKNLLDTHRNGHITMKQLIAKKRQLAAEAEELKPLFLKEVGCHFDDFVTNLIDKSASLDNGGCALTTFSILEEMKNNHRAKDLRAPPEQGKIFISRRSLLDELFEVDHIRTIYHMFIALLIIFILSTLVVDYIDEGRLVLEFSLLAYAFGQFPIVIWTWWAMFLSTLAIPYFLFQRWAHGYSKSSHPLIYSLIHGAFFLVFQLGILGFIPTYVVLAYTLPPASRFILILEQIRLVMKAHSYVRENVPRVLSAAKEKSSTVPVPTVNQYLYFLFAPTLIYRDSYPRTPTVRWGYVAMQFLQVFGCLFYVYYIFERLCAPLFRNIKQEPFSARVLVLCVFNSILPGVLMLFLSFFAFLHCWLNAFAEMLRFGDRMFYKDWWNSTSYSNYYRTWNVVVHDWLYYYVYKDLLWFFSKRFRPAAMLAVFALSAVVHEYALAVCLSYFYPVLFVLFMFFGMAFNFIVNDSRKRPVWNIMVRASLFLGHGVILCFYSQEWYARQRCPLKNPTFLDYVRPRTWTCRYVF
- Procedure details: Inhibition of fatty acyl CoA:cholesterol acyl transferase (ACAT), rat adrenal enzyme
- Type: biochemical
- Condition label: rat adrenal ACAT; final concentration 5.2 μg/ml; read-out: % Inhibition
- Procedure: The compounds of the present invention were assayed for two types of biological activity related to their potential use as antiatherosclerotic agents. […] The compounds were tested for their ability to inhibit ACAT according to the following procedure: rat adrenals were homogenized in 0.2M monobasic potassium phosphate buffer, pH 7.4, and centrifuged at 1,000 times gravity for 15 minutes at 5° C. […] The cholesteryl ester fraction was counted in a scintillation counter. […]
Assay endpoint: inhibition at 5.2 µg/mL (%)
All answers are understood in %, so give the number only.

Q: Need inhibition at 5.2 µg/mL, item `CCCCN(Cc1ccccc1)C(=O)Nc1cccc(Cl)c1`
A: 88.6

Q: Need inhibition at 5.2 µg/mL, item `COc1ccccc1CN(Cc1ccccc1F)C(=O)Nc1ccc(C)cc1C`
A: 41.5

Q: Need inhibition at 5.2 µg/mL, item `CCCCCCCN(Cc1ccc(CCCC)cc1)C(=O)Nc1ccc(Cl)cc1Cl`
A: 80

Q: Need inhibition at 5.2 µg/mL, item `CCCCN(CCCc1ccc(OC)c(OC)c1)C(=O)Nc1ccc(C)cc1C`
A: 36.4

Q: Need inhibition at 5.2 µg/mL, item `CCCCc1ccc(CN(Cc2ccccc2)C(=O)Nc2ccc(C)cc2C)cc1`
A: 91.9

Q: Need inhibition at 5.2 µg/mL, item `Cc1ccc(NC(=O)N(Cc2ccc(C)c(C)c2)Cc2ccccc2Cl)c(C)c1`
A: 92.9
